Data provenance is ChEMBL document CHEMBL1811792.

testSystem: Glycogen phosphorylase, muscle form (Oryctolagus cuniculus)
assayInfo: Inhibition of rabbit muscle glycogen phosphorylase […] assessed as release of phosphate from glucose-1- phosphate at 10 uM after 20 mins
propertyLabel: inhibition (%)

- structureNotation: "Cc1ccccc1NC(=O)C(=O)Nc1ccccc1C"
  propertyLabel: "inhibition"
  unitOfMeasurement: "%"
  reportedValue: 55

(a) NC(=O)c1ccccc1NC(=O)COc1ccc(Cl)cc1
(b) COC(=O)c1ccccc1NC(=O)Nc1ccc(SC)cc1
Query: Given a and given b , which shows the smaller recorded inhibition? Kindly give the label for the entry you pick.
Reply: b
(b: 7%, a: 38%)
